Hi there, I'd appreciate the recorded half-life at 5 µM for every entry that follows.
Experiment: Measurement of microsomal stability
Type: in vitro ADME
Details: pooled human liver microsomes 1.0 mg/ml, test compound 5 µM, pH 7.4, incubation up to 60 min

Example entries begin here.
                               smiles_input  endpoint_result
0   CCCCN(CC)Cc1c(CC)nc2cc(C=CC(=O)NO)ccn12            > 1 h
1    CCCCN(CC)Cc1c(C)nc2cc(C=CC(=O)NO)ccn12          0.983 h
2  CC(C)CCc1nc2cc(C=CC(=O)NO)ccn2c1CNC(C)(C)C            > 1 h

Quick one: give me half-life at 5 µM for each item below, same order please.
1. CCCCc1nc2cc(C=CC(=O)NO)ccn2c1CNC(C)(C)C
2. CCc1nc2cc(C=CC(=O)NO)ccn2c1CN(CC)CCC(C)C
3. CCN(CCC(C)C)Cc1c(C)nc2cc(C=CC(=O)NO)ccn12
4. CCN(CCC(C)(C)C)Cc1c(C)nc2cc(C=CC(=O)NO)ccn12

**Result**
1: > 1 h; 2: > 1 h; 3: > 1 h; 4: 0.75 h

**Query** Fill blank: measured half-life at 5 µM of the molecule "CCCc1nc2cc(C=CC(=O)NO)ccn2c1CNC(C)(C)C" is ____.
**Result** > 1 h
